We begin with a simple list: items and their reported Rmax (RU).
Molecular target: LANCL2 (Homo sapiens (Human), UniProt Q9NS86)
Sequence (Q9NS86 whole entry, species assumed): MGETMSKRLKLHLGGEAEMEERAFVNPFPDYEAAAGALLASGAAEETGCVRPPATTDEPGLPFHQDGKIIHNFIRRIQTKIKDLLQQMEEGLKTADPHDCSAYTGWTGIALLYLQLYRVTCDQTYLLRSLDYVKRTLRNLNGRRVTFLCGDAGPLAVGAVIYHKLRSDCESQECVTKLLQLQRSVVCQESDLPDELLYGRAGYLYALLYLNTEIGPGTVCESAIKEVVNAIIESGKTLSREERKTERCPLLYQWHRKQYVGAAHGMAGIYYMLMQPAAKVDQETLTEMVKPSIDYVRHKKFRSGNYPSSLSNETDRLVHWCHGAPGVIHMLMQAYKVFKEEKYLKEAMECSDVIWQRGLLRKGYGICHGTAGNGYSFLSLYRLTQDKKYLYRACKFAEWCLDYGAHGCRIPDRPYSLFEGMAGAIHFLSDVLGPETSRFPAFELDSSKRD
Experiment: SPR (BIACORE S200) kinetic determination of LANCL2-small molecule interactions
Format: binding
Settings: maximum binding force
Please respond with the number in RU and leave the unit unwritten.

Inquiry: Look at this compound and give its reported Rmax (RU). O=C(c1cccc(-c2nc3ccccc3[nH]2)n1)N1CCC2(CC1)CCN(C(=O)c1ccnc(Nc3ccccc3)n1)C2 [Embodiment L-62]
Reply text: 5.7

Continuing:
Inquiry: Look at this compound and give its reported Rmax (RU). Cc1cn(-c2cccc(C(=O)N3CC4C(C3)C4NC(=O)c3cccc(-c4nc5ccccc5[nH]4)n3)c2)cn1 [Embodiment L-93]
Reply text: 8

Inquiry: Look at this compound and give its reported Rmax (RU). O=C(N[C@H]1[C@@H]2CN(C(=O)c3cccc(Nc4ccccc4)n3)C[C@@H]21)c1cccc(Nc2ccccc2)n1 [Embodiment L-101]
Reply text: 5.5

Inquiry: Look at this compound and give its reported Rmax (RU). O=C(c1cccc(Nc2ccccc2)n1)N1CCC2(CC1)CCN(C(=O)c1ccnc(Nc3ccccc3)n1)CC2 [Embodiment L-80]
Reply text: 8.5

Inquiry: Look at this compound and give its reported Rmax (RU). O=C(Nc1cccc(-c2cn3ccccc3n2)c1)Nc1cccc(-c2cn3ccccc3n2)c1 [Embodiment L-119]
Reply text: 10.8

Inquiry: Look at this compound and give its reported Rmax (RU). O=C(c1cccc(Nc2ccccc2)n1)N1CC2CN(C(=O)c3cccc(-c4nc5ccccc5[nH]4)n3)CC2C1 [Embodiment L-46]
Reply text: 10.6

Inquiry: Look at this compound and give its reported Rmax (RU). O=C(c1cccc(-c2cn3ccccc3n2)c1)N1CC2CN(C(=O)c3cccc(-c4cn5ccccc5n4)c3)CC2C1 [Embodiment L-74]
Reply text: 0.102

----------
Biological target: LANCL2 (Homo sapiens (Human), UniProt Q9NS86)
Assay: SPR (BIACORE S200) kinetic determination of LANCL2-small molecule interactions
Format: binding
Conditions: immobilized LANCL2, 1:1 binding model, pH 6.5, 25° C.
measured-endpoint: pKd
# pKd is unitless: minus log10 of the molar concentration; print number only

Inquiry: Look at this molecule and give its reported pKd. Cc1ccc(C(=O)N2CCC3(CCN(C(=O)c4cccc(-c5cn6ccccc6n5)c4)CC3)CC2)cc1NC1=CC(=O)c2ccccc2C1=O [Embodiment L-95]
Reply text: 5.68

Inquiry: Look at this molecule and give its reported pKd. Cc1cn(-c2cccc(C(=O)N3CC4C(C3)C4NC(=O)c3cccc(-c4nc5ccccc5[nH]4)n3)c2)cn1 [Embodiment L-93]
Reply text: 5.23

Inquiry: Look at this molecule and give its reported pKd. O=C(c1ccnc(Nc2ccccn2)c1)N1CC2CN(C(=O)c3cccc(-c4cn5ccccc5n4)n3)CC2C1 [Embodiment L-54]
Reply text: 4.56

Inquiry: Look at this molecule and give its reported pKd. O=C(NC1CCN(C(=O)c2cccc(-c3nc4ccccc4[nH]3)n2)CC1)c1ccnc(Nc2ccccc2)n1 [Embodiment L-19]
Reply text: 4.60

Inquiry: Look at this molecule and give its reported pKd. O=C(c1cccc(-c2nc3ccccc3[nH]2)n1)N1CCC2(CCCN(C(=O)c3ccnc(Nc4ccccc4)n3)C2)CC1 [Embodiment L-64]
Reply text: 4.31

Kindly consider the entry below.
Inquiry: Look at this molecule and give its reported pKd. NC(=O)c1sccc1NC(=O)c1ccc(C(=O)N2CCC3(CC2)CCN(C(=O)c2cccc(-c4cn5ccccc5n4)c2)CC3)cc1 [Embodiment L-96]
Reply text: 5.72

----------
Biological target: LANCL2 (Homo sapiens (Human), UniProt Q9NS86)
Experiment: SPR (BIACORE S200) kinetic determination of LANCL2-small molecule interactions
Settings: immobilized LANCL2, 1:1 binding model, pH 6.5, 25° C.
Labelling: Kd reported below 10 µM becomes 1.0; at or above becomes 0.0.

Reference set (2 entries):
Inquiry: Would you kindly verify if Kd of O=C(c1cccc(-c2nc3ccccc3[nH]2)n1)N1CCC(c2nc3ccccc3[nH]2)CC1 [Embodiment L-57] is strictly less than 10 µM?
Reply text: 1.0

Inquiry: Would you kindly verify if Kd of O=C(c1cccc(-c2nc3ccccc3[nH]2)n1)N1CC2CN(C(=O)c3ccc4ccccc4n3)CC2C1 [Embodiment L-69] is strictly less than 10 µM?
Reply text: 0.0

Continuing:
Inquiry: Would you kindly verify if Kd of O=C(c1cccc(Nc2ccccc2)n1)N1CC2CN(C(=O)c3cccc(Nc4ccccc4)n3)CC2C1 [Embodiment L-100] is strictly less than 10 µM?
Reply text: 0.0

Inquiry: Would you kindly verify if Kd of O=C(NC1C2CN(C(=O)c3cccc(-c4nc5ccccc5[nH]4)n3)CC21)c1ccnc(Nc2ccccc2)n1 [Embodiment L-23] is strictly less than 10 µM?
Reply text: 0.0

Inquiry: Would you kindly verify if Kd of O=C(NC1C2CN(C(=O)c3cccc(-c4nc5ccccc5[nH]4)n3)CC21)c1cccc(Nc2ccccn2)n1 [Embodiment L-52] is strictly less than 10 µM?
Reply text: 1.0

Inquiry: Would you kindly verify if Kd of Cc1[nH]c2ccccc2c1C(=O)N1CC2CN(C(=O)c3cccc(-c4nc5ccccc5[nH]4)n3)CC2C1 [Embodiment L-71] is strictly less than 10 µM?
Reply text: 0.0

Inquiry: Would you kindly verify if Kd of O=C(c1cccc(-c2nc3ccccc3[nH]2)n1)N1CCC2(CC1)CCN(C(=O)c1cccc(-c3nc4ccccc4[nH]3)n1)CC2 [Embodiment L-9] is strictly less than 10 µM?
Reply text: 1.0

Inquiry: Would you kindly verify if Kd of O=C(c1cccc(Nc2ccccc2)n1)N1CC2CN(C(=O)c3cccc(-c4nc5ccccc5[nH]4)n3)CC2C1 [Embodiment L-46] is strictly less than 10 µM?
Reply text: 0.0

Inquiry: Would you kindly verify if Kd of Cc1ccc(C(=O)N2CC3C(C2)C3NC(=O)c2cccc(-c3nc4ccccc4[nH]3)n2)cc1NC1=CC(=O)c2ccccc2C1=O [Embodiment L-91] is strictly less than 10 µM?
Reply text: 1.0

Inquiry: Would you kindly verify if Kd of O=C(Nc1cccc(-c2cn3ccccc3n2)c1)Nc1cccc(-c2cn3ccccc3n2)c1 [Embodiment L-119] is strictly less than 10 µM?
Reply text: 1.0

Inquiry: Would you kindly verify if Kd of O=C(c1cccc(-c2nc3ccccc3[nH]2)n1)N1CCC2(CC1)CCN(C(=O)c1cccc(-c3nc4ccccc4[nH]3)n1)C2 [Embodiment L-59] is strictly less than 10 µM?
Reply text: 0.0

Inquiry: Would you kindly verify if Kd of O=C(NC1CCN(C(=O)c2cccc(-c3nc4ccccc4[nH]3)n2)CC1)C1CCCC(c2nc3ccccc3[nH]2)C1 [Embodiment L-20] is strictly less than 10 µM?
Reply text: 0.0

Inquiry: Would you kindly verify if Kd of Cc1ccc(C(=O)N2CCN(C(=O)c3cccc(-c4nc5ccccc5[nH]4)n3)CC2)cc1NC1=CC(=O)c2ccccc2C1=O [Embodiment L-116] is strictly less than 10 µM?
Reply text: 0.0

----------
Target: LANCL2 (Homo sapiens (Human))
Assay: SPR (BIACORE S200) kinetic determination of LANCL2-small molecule interactions
Conditions: immobilized LANCL2, 1:1 binding model, pH 6.5, 25° C.
measured-endpoint: log10 of Kd (log10 of the value in µM)
Short version: log10 scale, Kd, µM.

Inquiry: Look at this compound and give its reported log10 of Kd. `O=C(N[C@H]1[C@@H]2CN(C(=O)c3cccc(Nc4ccccc4)n3)C[C@@H]21)c1cccc(Nc2ccccc2)n1`
Reply text: 1.37

Inquiry: Look at this compound and give its reported log10 of Kd. O=C(c1ccc(F)c(Cl)c1)N1CC2CN(C(=O)c3cccc(-c4nc5ccccc5[nH]4)n3)CC2C1 (centres unmarked)
Reply text: 0.94

Inquiry: Look at this compound and give its reported log10 of Kd. `O=C(c1cnc2ccccc2c1)N1CCN(C(=O)c2cccc(-c3nc4ccccc4[nH]3)n2)CC1`
Reply text: 1.68

Inquiry: Look at this compound and give its reported log10 of Kd. `O=C(c1cccc(-c2nc3ccccc3[nH]2)n1)N1CCN(C(=O)c2n[nH]c3ccccc23)CC1`
Reply text: 1.42

Inquiry: Look at this compound and give its reported log10 of Kd. CN1CCC2(CC1)CCN(c1ccc(NC(=O)C3CCN(C(=O)c4cccc(-c5nc6ccccc6[nH]5)n4)C3)cc1)CC2 (centres unmarked)
Reply text: 1.82

Inquiry: Look at this compound and give its reported log10 of Kd. `Cc1cn(-c2cccc(C(=O)N3CCC4(CCN(C(=O)c5cccc(-c6cn7ccccc7n6)c5)CC4)CC3)c2)cn1`
Reply text: 1.77

Inquiry: Look at this compound and give its reported log10 of Kd. O=C(NC1C2CN(C(=O)c3cccc(-c4nc5ccccc5[nH]4)n3)CC21)c1cccc(-c2nc3ccccc3[nH]2)n1 (centres unmarked)
Reply text: 0.56

----------
Target: LANCL2 (Homo sapiens (Human), UniProt Q9NS86)
Assay: SPR (BIACORE S200) kinetic determination of LANCL2-small molecule interactions
Type: binding
Conditions: maximum binding force
measured-endpoint: Rmax (RU)
Please respond with the number in RU and leave the unit unwritten.

Here are 2 compounds together with their reported answers.
Inquiry: Kindly state the measured Rmax (RU) obtained for O=C(NC1C2CN(C(=O)c3cccc(-c4nc5ccccc5[nH]4)n3)CC21)c1ccnc(N2CCOCC2)n1 [Embodiment L-14] with LANCL2 (Homo sapiens (Human), UniProt Q9NS86).
Reply text: 7.1

Inquiry: Kindly state the measured Rmax (RU) obtained for O=C(NC1CCN(C(=O)c2cccc(-c3nc4ccccc4[nH]3)n2)CC1)C1CCCC(c2nc3ccccc3[nH]2)C1 [Embodiment L-20] with LANCL2 (Homo sapiens (Human), UniProt Q9NS86).
Reply text: 5.3

Continuing:
Inquiry: Kindly state the measured Rmax (RU) obtained for O=C(NC1CCN(C(=O)c2cccc(-c3nc4ccccc4[nH]3)n2)CC1)c1ccnc(Nc2ccccc2)n1 [Embodiment L-19] with LANCL2 (Homo sapiens (Human), UniProt Q9NS86).
Reply text: 9.7

Inquiry: Kindly state the measured Rmax (RU) obtained for O=C(c1cccc(-c2nc3ccccc3[nH]2)n1)N1CC2CC1CN2C(=O)c1ccnc(N2CCOCC2)n1 [Embodiment L-18] with LANCL2 (Homo sapiens (Human), UniProt Q9NS86).
Reply text: 5.2
